B1: ANKRD44 (parent)
chain: FHCIETLVTTGANVNETDDWGRTA

- Variants of: B1
- TEST_METHOD_NOTES: protein stability index of a GFP-peptide fusion (GPS, HEK-293T) (PSI 1-6); higher = more stable;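 further: lentivirally expressed fusions sorted by FACS into six bins by GFP to DsRed ratio, PSI derived from sequencing read proportions per bin multiplied by bin number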
- CONDITION_LABEL: c terminus: a fixed tail appended
Some variants, each annotated with its measured protein stability index.
METRIC_NAME: protein stability index

VARIANT_KEY	RESULT_NUMBER
A12Q	2.09
T23W	1.56
V8L	1.4
D19K	2.05
D18V	2.43
E16Y	2.32
G21V	2.27
A24D	2.74
E5R	1.55
A12R	2.33
G21D	2.71
G11V	2.09
D18R	2.17
C3P	3.36
T9V	1.6
T9Q	2.63
A24R	2.37
T17H	1.83
H2V	1.74
A12F	2.61
E5Y	3.36
R22N	2.35
